Exercise: state measured pEC50 for each of the molecules provided.
- System: subgenomic HCV genotype 1 (con 1) replicon
- measurement_notes: Antiviral activity, subgenomic HCV replicon luciferase test in Huh-7 cells
- Assay type: cell-based, hepatitis C virus
- conditions_used: Hepatitis C virus, Huh-7, 96 h, Huh-7 replicon cells, 4 days, luminescence reduced by 50%
Remember, pEC50 is on a log scale: it is -log10 of the molar concentration.

Record COc1cccc2c1C(=O)c1c(O)c3c(c(O)c1C2=O)CC(O)(C(C)=O)CC3OC1CC(N=C(C)N2CCN(C)CC2)C(O)C(C)O1 (stereo not drawn) . Reported pEC50: 7.25

Record COc1cccc2c1C(=O)c1c(O)c3c(c(O)c1C2=O)C[C@@](O)(C(C)=O)C[C@@H]3O[C@H]1C[C@H](N)[C@H](O)[C@H](C)O1 [Daunorubicin, reference compound] . Reported pEC50: 7.51

Record COc1cccc2c1C(=O)c1c(O)c3c(c(O)c1C2=O)C[C@@](O)(C(=O)CO)C[C@@H]3O[C@H]1C[C@H](N)[C@H](O)[C@H](C)O1 [Doxorubicin, reference compound] . Reported pEC50: 7.51

---

- target_under_test: HCV helicase (helicase domain of NS3 protein)
- Construct: The helicase domain of NS3 protein was expressed in a baculovirus system in HF insect cell line; fused on or other part: Histidine tag, inferred from the Talon cobalt column purification ('histidine repetitions')
- measurement_notes: Fluorometric (FRET) antihelicase activity assay
- Format: biochemical, hepatitis C virus (HCV)
- conditions_used: concentration inhibiting 50% of helicase activity; 10 nM enzyme pre-incubated 15 min with derivative, unwinding at 30° C. for 60 min; read-out: IC50
Exercise: state measured IC50 for each of the compounds provided.
Number only, in nM; omit the unit.

Record COc1cccc2c1C(=O)c1c(O)c3c(c(O)c1C2=O)CC(O)(C(=O)CO)CC3OC1CC(N=C(C)N2CCN(C)CC2)C(O)C(C)O1 (stereo not drawn) [Derivative 59] . Reported IC50: 420

Record COc1cccc2c1C(=O)c1c(O)c3c(c(O)c1C2=O)CC(O)(C(C)=O)CC3OC1CC(N=CN2CCCCC2)C(O)C(C)O1 (stereo not drawn) [Derivative 73] . Reported IC50: 2390

Record CCN(CC)C(C)=NC1CC(OC2CC(O)(C(C)=O)Cc3c(O)c4c(c(O)c32)C(=O)c2c(OC)cccc2C4=O)OC(C)C1O (stereo not drawn) . Reported IC50: 180

---

- target_under_test: HCV helicase (helicase domain of NS3 protein)
- Construct: The helicase domain of NS3 protein was expressed in a baculovirus system in HF insect cell line; fused on or other part: Histidine tag, inferred from the Talon cobalt column purification ('histidine repetitions')
- measurement_notes: Fluorometric (FRET) antihelicase activity assay
- Format: biochemical, hepatitis C virus (HCV)
- conditions_used: concentration inhibiting 50% of helicase activity; 10 nM enzyme pre-incubated 15 min with derivative, unwinding at 30° C. for 60 min; read-out: IC50
Mark 1 for IC50 under 1000 nM, -1 if at or over.

Query :: I wonder whether COc1cccc2c1C(=O)c1c(O)c3c(c(O)c1C2=O)CC(O)(C(C)=O)CC3OC1CC(N=C(C)N2CCN(C)CC2)C(O)C(C)O1 (stereo not drawn) [Derivative 25] has IC50 below 1000 nM. Can you tell?
Result :: -1

Query :: I wonder whether COc1cccc2c1C(=O)c1c(O)c3c(c(O)c1C2=O)CC(O)(C(=O)CO)CC3OC1CC(N=CN2CCCCCC2)C(O)C(C)O1 (stereo not drawn) [Derivative 111] has IC50 below 1000 nM. Can you tell?
Result :: -1

Query :: I wonder whether COc1cccc2c1C(=O)c1c(O)c3c(c(O)c1C2=O)CC(O)(C(C)=O)CC3OC1CC(N=C(C)N2CCN(C)CC2)C(O)C(C)O1 (stereo not drawn) [Derivative 94] has IC50 below 1000 nM. Can you tell?
Result :: 1

Query :: I wonder whether COc1cccc2c1C(=O)c1c(O)c3c(c(O)c1C2=O)CC(O)(C(=O)CO)CC3OC1CC(N=C(C)N2CCN(C)CC2)C(O)C(C)O1 (stereo not drawn) [Derivative 131] has IC50 below 1000 nM. Can you tell?
Result :: 1
